- experimental.details: small-molecule microarray binders of probe aWnt5a, primary screen, biochemical, biotinylated probe, 635/667 nm fluorescence (AID 1113);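 also: score merges 667 nm fluorescence intensity with signal-to-noise per printed feature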
- stated.conditions: higher = more signal
Label rule, in plain words: composite z-score of -0.1 and up is rule met, under -0.1 is rule not met.

# molecule, category
data = [
    ("COc1ccc(O[C@@H]2[C@H](O)CO[C@H]2C=Cc2ccccc2)cc1", "rule met"),
    ("CCOC(=O)[C@H](Cc1ccccc1)NC(=O)CCC1CC(OC(=O)NCCc2ccc(F)cc2)CC2(CCCC(COC(=O)NCc3ccccc3)O2)O1 (stereo partly drawn)", "rule not met"),
    ("CC(C)=CCCC(C)=CCON=C1C[C@@H](O)[C@@H](O)[C@@H]2[C@@H]3C(=O)N(c4cccc(Oc5ccccc5)c4)C(=O)[C@@H]3CC[C@@H]12", "rule not met"),
    ("C[C@@H]1NC(=O)[C@@H](C)COC(=O)[C@H](C)NC(=O)[C@@H](C)COC1=O", "rule not met"),
    ("CCOC(=O)[C@H](CC(C)C)NC(=O)CCC1CC(OC(=O)NCc2ccc3c(c2)OCO3)CC2(CCCC(COC(=O)NCCCN3CCCC3=O)O2)O1 (stereo partly drawn)", "rule met"),
    ("Cc1cc2c(nc1C)CCCN2CC(O)CN1CCCc2nc(C)c(C)cc21", "rule met"),
    ("CO[C@H]1COC(=O)[C@@H](C)COC(=O)[C@H](COCc2ccccc2)NC(=O)CC=C[C@H]1C", "rule not met"),
    ("C#CCCCON=C1C[C@@H](O)[C@@H](O)[C@@H]2[C@@H]3C(=O)N(CC)C(=O)[C@@H]3CC[C@@H]12", "rule not met"),
]

----------
- System: Fibrinogen (Alexa647-labelled)
- experimental.details: fibrinogen binders on compound microarrays, profiling panel, artefact control for SMM control-protein annotation, biochemical, small-molecule microarray, 635/667 nm fluorescence (AID 1131);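 also: z-score merges 667 nm fluorescence with per-spot signal-to-noise over triplicate slides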
- stated.conditions: fibrinogen-A647 binding fluorescence, higher = more signal
Outcome label depends on composite z-score relative to 0.2: at/above gives Criterion met, below gives Criterion not met.

# molecule, category
data = [
    ("CC(CCC(=O)OC[C@H]1O[C@H](C#Cc2ccccc2)C=C[C@@H]1Oc1ccc(C)cc1)=NO[C@H](C)c1cn([C@H](CO)Cc2ccccc2)nn1", "Criterion met"),
    ("CCOC(=O)[C@H](Cc1ccccc1)NC(=O)CCC1CC(OC(=O)NCc2cccc3ccccc23)CC2(CCCC(COC(=O)NCc3cccc(C(F)(F)F)c3)O2)O1 (stereo partly specified)", "Criterion not met"),
    ("COC(=O)CC=C[C@@H](C)[C@@H](C=NO[C@H](C)c1cn([C@H](CO)Cc2ccccc2)nn1)NS(=O)(=O)c1ccc(C)cc1", "Criterion met"),
    ("CC(CCN1CCCc2nc(C)c(C)cc21)=NOC(C)CN1CCCCc2nc(C)c(C)cc21 (stereo unspecified)", "Criterion met"),
    ("COc1ccc(O[C@H]2C=C[C@@H](c3ccccc3)O[C@@H]2COC(=O)CCC(C)=NO[C@@H]2O[C@H](COC(C)=O)[C@@H](OC(C)=O)[C@H](OC(C)=O)[C@H]2OC(C)=O)cc1", "Criterion met"),
    ("C#CCCCON=C1C[C@@H](O)[C@@H](O)[C@@H]2[C@@H]3C(=O)N(Cc4ccccc4)C(=O)[C@@H]3CC[C@@H]12", "Criterion not met"),
]

----------
- assay.system: Carbonic anhydrase 2 (Homo sapiens)
- experimental.details: CAII small-molecule binders, profiling panel, biochemical, small-molecule microarray, Alexa647-labelled CAII (AID 1122)
- stated.conditions: CAII-A647 binding fluorescence, higher = more signal

# compound, composite z-score
measured = [
    ("CC(C)CON=C1C[C@@H](O)[C@@H](O)[C@@H]2[C@@H]3C(=O)N(C(C)(C)C)C(=O)[C@@H]3CC[C@H]12", 0.11),
    ("CCOC(=O)NN=C1C[C@@H](O)[C@@H](O)[C@@H]2[C@@H]3C(=O)N(Cc4ccc5c(c4)OCO5)C(=O)[C@@H]3CC[C@H]12", 0.347),
    ("Cc1cc2c(nc1C)CCCN2CC(O)CN1CCCc2nc(C)c(C)cc21", 0.798),
    ("CCN1C(=O)[C@H]2[C@H]3[C@H](O)[C@H](O)CC(=NOC[C@H]4O[C@H](c5ccccc5)C=C[C@@H]4Oc4ccc(OC)cc4)[C@@H]3CC[C@H]2C1=O", 0.353),
    ("O=C1CCCC(C2=CCCCC2=O)C1 (stereo not given)", -0.139),
    ("CCC(=O)[C@@]1(O)C(=O)N2C(=C3C(=O)OCC[C@@H]31)N(Cc1ccccc1)C(C)=C(C(=O)OC)[C@H]2c1ccccc1", -0.109),
    ("COC(=O)CC=C[C@@H](C)[C@@H](C=NO[C@@H](C)c1cn([C@H](CO)Cc2ccccc2)nn1)NS(=O)(=O)c1ccc(C)cc1", -0.146),
    ("CCOC(=O)[C@H](CC(C)C)NC(=O)CCC1CC(OC(=O)NCCc2ccc(F)cc2)CC2(CCCC(COC(=O)NCCOc3ccccc3)O2)O1 (stereo not given in full)", 0.193),
    ("COC(=O)[C@H](C)NC(=O)CCC1CC(OC(=O)NCc2ccc3c(c2)OCO3)CC2(CCCC(COC(=O)NCc3cccc(C(F)(F)F)c3)O2)O1 (stereo not given in full)", 0.424),
    ("COc1ccc(COC(=O)NN=C2C[C@@H](O)[C@@H](O)[C@@H]3[C@@H]4C(=O)N(Cc5ccccc5)C(=O)[C@@H]4CC[C@H]23)cc1", -0.17),
    ("CO[C@@H]1C=CCC(=O)N2CCC[C@H]2C(=O)OC[C@@H](C)C(=O)OC[C@H]1C", -0.31),
    ("Cc1cc2c(nc1C)CCCCN2CC(C)ON=C1[C@H]2CCn3c(=O)n(-c4ccccc4)c(=O)n3[C@H]2[C@H](O)[C@@H]2O[C@H]12 (stereo not given in full)", 0.435),
    ("CC(C)(C)N1C(=O)[C@H]2[C@H]3[C@H](O)[C@H](O)CC(=O)[C@H]3CC[C@H]2C1=O", 0.0658),
    ("CCOC(=O)NN=C1C[C@@H](O)[C@@H](O)[C@@H]2[C@@H]3C(=O)N(Cc4ccccc4)C(=O)[C@@H]3CC[C@H]12", 0.542),
    ("CC(C)CON=C1C[C@@H](O)[C@@H](O)[C@@H]2[C@@H]3C(=O)N(C4CCCCC4)C(=O)[C@@H]3CC[C@@H]12", 0.389),
]

----------
- experimental.details: small-molecule binders of probe aInhba, primary screen, biochemical, small-molecule microarray, 635/667 nm fluorescence (AID 1148);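 also: score merges 667nm spot fluorescence with signal-to-noise for antibody binding to printed compounds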
- stated.conditions: higher = more signal
measured.metric: composite z-score

# molecule, observed
data = [
    ("O=C1C[C@@H](O)[C@@H](O)[C@@H]2[C@@H]3C(=O)N(Cc4ccccc4)C(=O)[C@@H]3CC[C@@H]12", 0.0391),
    ("CCOC(=O)[C@H](CC(C)C)NC(=O)CCC1CC(OC(=O)NCc2ccc3c(c2)OCO3)CC2(CCCC(COC(=O)NCCCN3CCCC3=O)O2)O1 (stereo not given in full)", 0.0154),
    ("CCOC(=O)[C@H](CC(C)C)NC(=O)CCC1CC(OC(=O)NCCc2ccc(F)cc2)CC2(CCCC(COC(=O)NCCOc3ccccc3)O2)O1 (stereo not given in full)", 0.336),
    ("C=CC[C@@H]1C=C[C@H](ON=C(C)CCC(=O)OC[C@H]2O[C@H](C#Cc3ccccc3)C=C[C@@H]2Oc2ccc(C)cc2)[C@@H](CO)O1", -0.0375),
    ("Cn1c(=O)n2n(c1=O)[C@H]1[C@H](O)[C@@H]3O[C@@H]3C(=O)[C@H]1CC2", -0.041),
    ("COc1cccc([C@H]2Oc3ccc(OC)cc3C(=NOC[C@@H](O)[C@H]3O[C@@H]4OC(C)(C)O[C@@H]4[C@H]3O)[C@@H]2O)c1", -0.105),
    ("CCc1cc2c(nc1CC)CCN(CCC(C)=NO[C@H](C)c1cn([C@@H]3COC[C@H]3O)nn1)C2", -0.0963),
    ("CON=C[C@@H](C)[C@H](OCc1ccccc1)C(C)C", -0.0963),
    ("COC(=O)[C@@H]1CC[C@H](C)[C@@H](c2ccc(C)cc2)N1C(=O)c1ccc(C=NOC[C@@H](C)[C@H](OCc2ccccc2)C(C)C)cc1", -0.018),
    ("CCOC(=O)[C@H](CC(C)C)NC(=O)CCC1CC(OC(=O)NCc2cccc3ccccc23)CC2(CCCC(COC(=O)NCCCN3CCCC3=O)O2)O1 (stereo not given in full)", -0.128),
    ("C[C@@H](c1ccccc1)N1C(=O)[C@H]2[C@H]3[C@H](O)[C@H](O)CC(=NOCc4ccccc4)[C@H]3CC[C@H]2C1=O", -0.183),
    ("C[C@@H]1CC[C@H]2C(=O)O[C@@H](COc3ccc(C(C)(C)C)cc3)CN2[C@@H]1c1ccc(Br)cc1", -0.0987),
    ("CCC=CCCC(OC(=O)c1ccc(Br)cc1)C1=CCCCC1=O (stereo not given)", -0.195),
    ("CCOC(=O)[C@H](CC(C)C)NC(=O)CCC1CC(OC(=O)NCc2cccc3ccccc23)CC2(CCCC(COC(=O)NCCC(C)C)O2)O1 (stereo not given in full)", -0.0736),
    ("COCCNC(=O)OCC1CCCC2(CC(OC(=O)NCc3ccc4c(c3)OCO4)CC(CCC(=O)N[C@@H](C)C(=O)OC)O2)O1 (stereo not given in full)", -0.205),
]
